Where do these numbers come from? They come from ChEMBL document CHEMBL5136981.

# experimental system: von Hippel-Lindau disease tumor suppressor/Histone deacetylase 1 (Homo sapiens, UniProt P40337+Q13547)
# Sequence (Q13547 whole entry): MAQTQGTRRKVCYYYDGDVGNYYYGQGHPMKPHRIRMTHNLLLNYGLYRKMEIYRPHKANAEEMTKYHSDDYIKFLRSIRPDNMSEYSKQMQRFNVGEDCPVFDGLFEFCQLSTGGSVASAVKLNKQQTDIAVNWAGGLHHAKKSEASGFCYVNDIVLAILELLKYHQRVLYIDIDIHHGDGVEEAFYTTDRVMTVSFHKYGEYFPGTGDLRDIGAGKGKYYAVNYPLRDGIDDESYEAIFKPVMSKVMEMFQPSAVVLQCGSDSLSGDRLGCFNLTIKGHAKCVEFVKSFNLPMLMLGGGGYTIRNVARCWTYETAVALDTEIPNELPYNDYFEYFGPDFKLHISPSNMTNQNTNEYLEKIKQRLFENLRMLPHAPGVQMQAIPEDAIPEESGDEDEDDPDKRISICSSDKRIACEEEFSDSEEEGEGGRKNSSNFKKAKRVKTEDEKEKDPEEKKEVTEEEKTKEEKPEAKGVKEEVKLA
# Sequence (P40337 whole entry): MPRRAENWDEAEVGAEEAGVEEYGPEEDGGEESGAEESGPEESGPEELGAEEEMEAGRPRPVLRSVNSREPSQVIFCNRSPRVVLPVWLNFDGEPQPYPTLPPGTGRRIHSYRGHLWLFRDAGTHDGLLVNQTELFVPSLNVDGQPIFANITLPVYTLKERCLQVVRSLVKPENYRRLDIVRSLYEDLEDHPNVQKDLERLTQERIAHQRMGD
# experiment: PROTAC activity at VHL/HDAC1 (unknown origin) by cell based assay
value kind: IC50 (nM)
Answer in nM, number only, no unit symbol.

Return the recorded IC50 value; entry: `CCCNNC(=O)c1ccc(-c2ccc(NC(=O)CCCCCCC(=O)N[C@H](C(=O)N3C[C@H](O)C[C@H]3C(=O)N[C@@H](C)c3ccc(-c4scnc4C)cc3)C(C)(C)C)cc2)cc1`
650

* * *

# experimental system: von Hippel-Lindau disease tumor suppressor/Histone deacetylase 3 (Homo sapiens, UniProt O15379+P40337)
# Sequence (O15379 whole entry): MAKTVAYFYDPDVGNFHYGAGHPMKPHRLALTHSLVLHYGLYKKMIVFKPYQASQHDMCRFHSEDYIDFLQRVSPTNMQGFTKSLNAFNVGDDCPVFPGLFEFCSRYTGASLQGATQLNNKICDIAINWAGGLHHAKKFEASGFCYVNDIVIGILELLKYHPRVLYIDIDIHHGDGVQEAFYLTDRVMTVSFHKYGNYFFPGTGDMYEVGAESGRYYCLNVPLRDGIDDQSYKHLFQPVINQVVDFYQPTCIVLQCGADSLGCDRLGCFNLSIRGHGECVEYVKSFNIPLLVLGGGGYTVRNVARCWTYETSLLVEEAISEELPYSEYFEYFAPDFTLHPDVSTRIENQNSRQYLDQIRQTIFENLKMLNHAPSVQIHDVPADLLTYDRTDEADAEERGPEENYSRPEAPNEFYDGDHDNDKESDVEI
# Sequence (P40337 whole entry): as the sequence (P40337 whole entry) above
# experiment: PROTAC activity at VHL/HDAC3 (unknown origin) by cell based assay
value kind: pIC50
Scale: pIC50 equals -log10([C]), with [C] in mol/L.

Please look at this compound and report its pIC50: `CCCNNC(=O)c1ccc(-c2ccc(NC(=O)CCCCCCC(=O)N[C@H](C(=O)N3C[C@H](O)C[C@H]3C(=O)N[C@@H](C)c3ccc(-c4scnc4C)cc3)C(C)(C)C)cc2)cc1`
6.46
